Values from paper PMC2746568

Would you mind telling me the reported microsomal CLint at 1 µM of each entry?
test: In vitro human microsomal metabolism; conditions: human, pooled human liver microsomes
A number alone suffices; assume µL/min/mg.

# microsomal CLint at 1 µM (compound: Cc1cc(Nc2ccc(F)c(C)c2)n2ncnc2n1 [Compound 40] ) is 31

# microsomal CLint at 1 µM (compound: Cc1cc(Nc2ccc(Cl)c(C(F)(F)F)c2)n2ncnc2n1 [Compound 41] ) is 13

# microsomal CLint at 1 µM (compound: Cc1cc(Nc2ccc3cc4ccccc4cc3c2)n2ncnc2n1 [Compound 3] ) is 37

# microsomal CLint at 1 µM (compound: Cc1cc(Nc2ccc(Br)c(C(F)(F)F)c2)n2ncnc2n1 [Compound 42] ) is 14

# microsomal CLint at 1 µM (compound: Cc1cc(Nc2cccc(F)c2)n2ncnc2n1 [Compound 13] ) is 18

# microsomal CLint at 1 µM (compound: Cc1cc(Nc2cccc(C(F)(F)F)c2)n2ncnc2n1 [Compound 16] ) is 29

###

experiment: in vitro; conditions: human, microsomes
Would you mind telling me the reported microsomal CLint of each entry?
A number alone suffices; assume µL/min/mg.

# microsomal CLint (compound: Cc1cc(Nc2ccc(C(F)(F)F)cc2)n2ncnc2n1 [Compound 21] ) is 7.5

# microsomal CLint (compound: Cc1cc(Nc2cccc(Cl)c2)n2ncnc2n1 [Compound 14] ) is 38

# microsomal CLint (compound: Cc1cc(Nc2ccc3ccccc3c2)n2ncnc2n1 [Compound 2] ) is 96

###

test: In vitro human microsomal metabolism; settings: estimated from measured rate of degradation in vitro, human
Response field label takes Satisfied when Predicted EH (hepatic extraction ratio) is strictly below 0.6 and Not satisfied in all other cases.

Ask: Does the reported Predicted EH (hepatic extraction ratio) of Cc1cc(Nc2cccc(F)c2)n2ncnc2n1 stay below 0.6?
Reply: Satisfied

Ask: Does the reported Predicted EH (hepatic extraction ratio) of Cc1cc(Nc2ccc3cc4ccccc4cc3c2)n2ncnc2n1 stay below 0.6?
Reply: Not satisfied

Ask: Does the reported Predicted EH (hepatic extraction ratio) of Cc1cc(Nc2ccc(F)c(C)c2)n2ncnc2n1 stay below 0.6?
Reply: Not satisfied

Ask: Does the reported Predicted EH (hepatic extraction ratio) of Cc1cc(Nc2cccc(C(F)(F)F)c2)n2ncnc2n1 stay below 0.6?
Reply: Not satisfied

Ask: Does the reported Predicted EH (hepatic extraction ratio) of Cc1cc(Nc2ccc(Br)c(C(F)(F)F)c2)n2ncnc2n1 stay below 0.6?
Reply: Satisfied

Ask: Does the reported Predicted EH (hepatic extraction ratio) of Cc1cc(Nc2ccc(Cl)c(C(F)(F)F)c2)n2ncnc2n1 stay below 0.6?
Reply: Satisfied
